target: adrenergic β2 (Homo sapiens); construct: Eurofins DiscoverX, USA; test: Functional selectivity panel, adrenergic β2; format: biochemical; conditions: antagonist; read-out: IC/EC50 Adrenergic β2-antagonist
Sequence (P07550 whole entry): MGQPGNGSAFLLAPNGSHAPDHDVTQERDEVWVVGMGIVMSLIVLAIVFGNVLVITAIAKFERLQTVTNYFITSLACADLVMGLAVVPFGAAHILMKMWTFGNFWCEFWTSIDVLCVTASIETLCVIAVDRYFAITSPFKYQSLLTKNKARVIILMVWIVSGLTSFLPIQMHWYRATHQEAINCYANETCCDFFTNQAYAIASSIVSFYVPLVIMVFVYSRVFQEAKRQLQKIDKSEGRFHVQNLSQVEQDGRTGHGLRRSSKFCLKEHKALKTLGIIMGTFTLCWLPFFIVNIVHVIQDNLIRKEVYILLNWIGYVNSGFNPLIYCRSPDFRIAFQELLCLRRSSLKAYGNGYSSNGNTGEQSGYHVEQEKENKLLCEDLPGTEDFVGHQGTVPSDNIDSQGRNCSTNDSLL
pIC50: −log10 of the molar value.
measured-endpoint: pIC50

compound | number
O=C(Cc1nccc(-n2cc(Cl)c3cc(Cl)cc(Cl)c32)n1)NC1COCC1O (stereo not shown) | 4.34

----------
test system: rat DRG neurons; assay: Rat DRG neurons, capsaicin-evoked action potential firing; format: cell-based; conditions: capsaicin 1 μM; read-out: Rat DRGs, CAP IC50

molecule | tested-target | result-comparator | IC50 / nM
CC(C)c1cc(Cl)cc(Cl)c1Nc1ccc(F)c(CC(=O)NCC(C)(C)O)c1 [NH91, reference compound] | rat DRG neurons | = | 500
O=C(Cc1cc(-n2cc(Cl)c3cc(Cl)cc(Cl)c32)ccc1F)NCCO | rat DRG neurons | = | 0.1
O=C(Cc1nccc(-n2cc(Cl)c3cc(Cl)cc(Cl)c32)n1)NC1COCC1O (centres unmarked) | rat DRG neurons | = | 0.23
Cc1cn(-c2ccc(F)c(CC(=O)NCC(C)(C)O)c2)c2c(Cl)cc(Cl)cc12 [Compound 421] | rat DRG neurons | = | 25
Cc1cn(-c2ccc(F)c(CC(=O)NCC(C)(C)O)c2)c2c(Cl)cc(Cl)cc12 [Compound 421-6] | rat DRG neurons | < | 100

----------
List of pIC50 values.
target: hTRPV1 (Homo sapiens); construct: CDS of NM_080704.4, inserted into the multiple cloning site of pcDNA3.1(+); host or cells: CHO/hKv7.2/3; assay: hTRPV1 dual activity electrophysiology, CHO cells co-expressing hKv7.2/3 and hTRPV1; format: cell-based; details: Dual hTRPV1 / Dual Expressing CHO, CAP IC50, Kv7.2/3 co-expressed and activated, capsaicin
Sequence (Q8NER1 whole entry): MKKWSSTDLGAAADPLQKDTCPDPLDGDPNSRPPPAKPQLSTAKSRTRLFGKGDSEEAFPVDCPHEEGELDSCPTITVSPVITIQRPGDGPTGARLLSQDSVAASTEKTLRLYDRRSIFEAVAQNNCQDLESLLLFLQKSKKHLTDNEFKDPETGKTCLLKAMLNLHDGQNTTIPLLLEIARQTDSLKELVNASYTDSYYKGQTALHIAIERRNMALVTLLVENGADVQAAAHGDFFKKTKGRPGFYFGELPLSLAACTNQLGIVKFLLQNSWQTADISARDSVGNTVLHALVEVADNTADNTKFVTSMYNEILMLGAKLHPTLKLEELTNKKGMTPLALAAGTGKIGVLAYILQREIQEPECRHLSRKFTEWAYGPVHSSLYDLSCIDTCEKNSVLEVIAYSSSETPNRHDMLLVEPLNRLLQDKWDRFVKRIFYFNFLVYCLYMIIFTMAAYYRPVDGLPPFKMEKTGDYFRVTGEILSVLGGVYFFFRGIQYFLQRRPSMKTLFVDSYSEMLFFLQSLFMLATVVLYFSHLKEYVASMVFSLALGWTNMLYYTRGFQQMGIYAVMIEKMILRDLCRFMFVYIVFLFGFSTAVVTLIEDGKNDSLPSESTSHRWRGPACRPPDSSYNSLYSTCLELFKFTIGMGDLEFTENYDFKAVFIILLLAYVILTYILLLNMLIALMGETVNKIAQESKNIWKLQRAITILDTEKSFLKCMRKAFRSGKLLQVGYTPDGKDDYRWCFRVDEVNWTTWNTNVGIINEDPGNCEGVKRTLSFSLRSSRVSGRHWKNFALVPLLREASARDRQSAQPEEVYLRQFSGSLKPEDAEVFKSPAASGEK
pIC50: −log10 of the molar value.
measured-endpoint: pIC50

compound | tested-target | measured-endpoint | number
O=C(Cc1nccc(-n2cc(Cl)c3cc(Cl)cc(Cl)c32)n1)NC1COCC1O (stereo not shown) | hTRPV1 (Homo sapiens) | pIC50 | 9.70
O=C(Cc1cc(-n2cc(C(F)(F)F)c3cc(Cl)cc(Cl)c32)ncn1)NCCO | hTRPV1 (Homo sapiens) | pIC50 | 9.28
O=C(Cc1ccnc(-n2cc(Cl)c3cc(Cl)cc(Cl)c32)n1)N[C@@H]1COC[C@H]1O | hTRPV1 (Homo sapiens) | pIC50 | 7.32
O=C(Cc1cc(-n2cc(Cl)c3cc(Cl)cc(Cl)c32)ncn1)N[C@@H]1COC[C@H]1O | hTRPV1 (Homo sapiens) | pIC50 | 6.32

----------
List of logD values.
test: Log D, 1-octanol/buffer shake flask; format: physicochemical; details: pH 7.4

molecule | logD
Cc1cn(-c2ccc(F)c(CC(=O)NCCOCCOCC(C)(C)O)c2)c2c(Cl)cc(Cl)cc12 | 4.78
Cc1cn(-c2ccc(F)c(CC(=O)NCC(C)(C)O)c2)c2c(Cl)cc(Cl)cc12 | 5.47
CC1(C)CN(c2cncc(CC(=O)NC3COCC3O)c2)c2c(Cl)cc(Cl)cc21 (stereo not shown) | 3.24
O=C(Cc1cncc(N2CC3(CC3)c3cc(Cl)cc(Cl)c32)c1)NC1COCC1O (stereo not shown) | 3.22
Cc1cn(-c2ccc(F)c(CC(=O)NCCO)c2)c2c(Cl)cc(Cl)cc12 | 4.77
O=C(Cc1cc(-n2cc(Cl)c3cc(Cl)cc(Cl)c32)ncn1)NCCO | 3.38
CC1CN(c2cncc(CC(=O)NC3COCC3O)c2)c2c(Cl)cc(Cl)cc21 (mixture of isomers) | 2.88
